Data credit: PubChem BioAssay

Experiment: hepatitis C replication reporter changes, two-sided – Huh7 cells, luciferase reporter, HCV replication inhibitor project, primary screen (AID 1109);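 also: huh7 hepatoma cells harbouring a luciferase neomycin HCV replicon reporter; luciferase luminescence as measure of HCV replicon replication; test concentration not given here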
Conditions: Huh7 HCV replicon luciferase reporter, 48 h; higher = more signal
Note that class boundaries on z-score are low band: < -3; middle band: ≥ -3 and < -1; high band: ≥ -1

- compound: "[N-]=[N+]=Nc1ccccc1[C@H]1OC(c2ccc(OCCCO)cc2)=N[C@@]1(Cc1ccccc1)C(=O)NCc1ccccc1"
  class assignment: "low band"
- compound: "O=C(NCc1ccccc1)[C@]1(Cc2ccccc2)N=C(c2ccc(OCCCO)cc2)O[C@@H]1c1ccccc1"
  class assignment: "middle band"
- compound: "CC(C)NC(=O)[C@@]1(Cc2ccccc2I)c2ccccc2C(=O)N(Cc2ccccc2C(F)(F)F)[C@H]1c1ccc(CO)cc1"
  class assignment: "middle band"
- compound: "CCCCC(O)C1C=CC2C(=O)N(Cc3ccccc3)C(=O)C2N1n1cnnc1 (stereo not given)"
  class assignment: "middle band"
- compound: "NC(=O)[C@H]1[C@@H]2C(=O)O[C@@H](c3ccccc3)[C@@H](c3ccccc3)N2[C@@H](c2ccc(O)cc2)[C@]12C(=O)Nc1ccc(C#CC3(O)CCCCCC3)cc12"
  class assignment: "middle band"
- compound: "CC(C)C(CO)N1C(=O)[C@@H]2[C@H]3C(=O)OCC=C[C@H]3OC23C=CCN(CCN2CCOCC2)C(=O)[C@@H]13 (stereo not given in full)"
  class assignment: "high band"
- compound: "COC(=O)[C@@]1(Cc2ccccc2)[C@H]2c3cc(C(=O)N4CCCC4)n(Cc4ccccc4)c3C[C@H]2CN1C(=O)c1ccccc1"
  class assignment: "middle band"
- compound: "CC1=C2[C@@H](CCc3ccccc3)OB(O)C[C@@H]2[C@@H]2C(=O)C=CC(=O)[C@@H]2C1"
  class assignment: "middle band"

# next compound below
Lab note: sort COCCOC(=O)N1C(=O)[C@@]2(c3cc(C#CC4(O)CCCCCC4)ccc31)[C@H](C(=O)NC[C@H](O)c1ccccc1)[C@H]1C(=O)O[C@H](c3ccccc3)[C@H](c3ccccc3)N1[C@@H]2c1ccc(OCCO)cc1 into the matching z-score band.
middle band
